Target or system Mu-type opioid receptor (Rattus norvegicus); recorded quantity pKi.
Field pKi (float): negative decimal logarithm of the concentration in molar.

Some compounds with known pKi results, for comparison:
CCCCCCOc1cccc2c1[C@]13CCN(CC4CC4)[C@H](C2)[C@]1(OC)CCC(=O)C3 :: 4.35
O=C1CC[C@@]2(OCCCc3ccccc3)[C@H]3Cc4cccc5c4[C@@]2(CCN3CC2CC2)C1O5 (some centres undefined) :: 6.08
CO[C@@]12CCC(=O)C[C@@]13CCN(CC1CC1)[C@@H]2Cc1cccc(OCCCc2ccccc2)c13 :: 4.36

Exercise: Please tell me: pKi of O=C1CC[C@@]2(OCCCc3ccccc3)[C@H]3Cc4cccc(O)c4[C@@]2(CCN3CC2CC2)C1 , system Mu-type opioid receptor (Rattus norvegicus)?
Key: 6.40

Exercise: Please tell me: pKi of CCCCOc1cccc2c1[C@]13CCN(CC4CC4)[C@H](C2)[C@]1(OC)CCC(=O)C3 , system Mu-type opioid receptor (Rattus norvegicus)?
Key: 4.86

Exercise: Please tell me: pKi of COc1cccc2c1[C@]13CCN(CC4CC4)[C@H](C2)[C@]1(OC)CCC(=O)C3 [CYPRODIME] , system Mu-type opioid receptor (Rattus norvegicus)?
Key: 4.97

Exercise: Please tell me: pKi of CO[C@@]12CCC(=O)C[C@@]13CCN(CC1CC1)[C@@H]2Cc1cccc(OCc2ccccc2)c13 , system Mu-type opioid receptor (Rattus norvegicus)?
Key: 4.94

Exercise: Please tell me: pKi of CCCCOc1cccc2c1[C@]13CCN(CC4CC4)[C@H](C2)[C@]1(OCCCc1ccccc1)CCC(=O)C3 , system Mu-type opioid receptor (Rattus norvegicus)?
Key: 4.83

Exercise: Please tell me: pKi of COc1cccc2c1[C@]13CCN(CC4CC4)[C@H](C2)[C@]1(OCCCc1ccccc1)CCC(=O)C3 , system Mu-type opioid receptor (Rattus norvegicus)?
Key: 6.47

* * *

target: Mu-type opioid receptor (Homo sapiens, UniProt P35372); experiment: Percent maximal stimulation of [35S]GTP-gamma-S, binding to recombinant human Opioid receptor mu 1 expressed in CHO cells; format: functional, cell-based
Sequence (P35372 whole entry): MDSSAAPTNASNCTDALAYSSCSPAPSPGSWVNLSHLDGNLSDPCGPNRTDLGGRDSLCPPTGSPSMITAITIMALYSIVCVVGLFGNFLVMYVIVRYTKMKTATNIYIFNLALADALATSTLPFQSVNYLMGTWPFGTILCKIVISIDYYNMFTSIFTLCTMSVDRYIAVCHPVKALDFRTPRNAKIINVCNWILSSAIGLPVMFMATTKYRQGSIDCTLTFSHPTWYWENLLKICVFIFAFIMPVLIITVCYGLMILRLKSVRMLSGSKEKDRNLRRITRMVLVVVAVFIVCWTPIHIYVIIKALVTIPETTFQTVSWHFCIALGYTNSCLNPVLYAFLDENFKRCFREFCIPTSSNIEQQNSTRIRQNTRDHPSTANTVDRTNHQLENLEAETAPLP
test.readout: Emax

Some compounds with known Emax results, for comparison:
COc1cccc2c1[C@]13CCN(CC4CC4)[C@H](C2)[C@]1(OC)CCC(=O)C3 [CYPRODIME] :: 33%
O=C1CC[C@@]2(OCCCc3ccccc3)[C@H]3Cc4cccc5c4[C@@]2(CCN3CC2CC2)C1O5 (some centres undefined) :: 43%
COc1cccc2c1[C@]13CCN(CC4CC4)[C@H](C2)[C@]1(OCCCc1ccccc1)CCC(=O)C3 :: 35%

Shifting focus to the compound that follows.
Exercise: Which value of Emax has been reported for O=C1CC[C@@]2(OCCCc3ccccc3)[C@H]3Cc4cccc(O)c4[C@@]2(CCN3CC2CC2)C1 in the records?
Key: 35%

* * *

A collection of compounds and their measured EC50
target: UniProtKB P35372; experiment: Concentration necessary to produce 50% of the Emax value, i.e. to stimulate [35S]GTP-gamma-S, binding to recombinant human Opioid receptor mu 1 expressed in CHO cells

O=C1CC[C@@]2(OCCCc3ccccc3)[C@H]3Cc4cccc5c4[C@@]2(CCN3CC2CC2)C1O5 (some centres undefined) :: 9.8 nM
CCCCOc1cccc2c1[C@]13CCN(CC4CC4)[C@H](C2)[C@]1(OC)CCC(=O)C3 :: > 10000 nM
COc1cccc2c1[C@]13CCN(CC4CC4)[C@H](C2)[C@]1(OCCCc1ccccc1)CCC(=O)C3 :: 1.97 nM

Exercise: Which value of EC50 has been reported for O=C1CC[C@@]2(OCCCc3ccccc3)[C@H]3Cc4cccc(O)c4[C@@]2(CCN3CC2CC2)C1 in the records?
Key: 3.47 nM
